Please provide measured Inhibitory activity on 11β-HSD 1, % CTL for the entries that follow.
- subject.of.test: 11β-HSD 1 (Homo sapiens, UniProt P28845)
- Construct: detecting cortisol generated from cortisterone by human liver microsomes; from tissue; host or cells: human liver microsomes
- Sequence (P28845 whole entry): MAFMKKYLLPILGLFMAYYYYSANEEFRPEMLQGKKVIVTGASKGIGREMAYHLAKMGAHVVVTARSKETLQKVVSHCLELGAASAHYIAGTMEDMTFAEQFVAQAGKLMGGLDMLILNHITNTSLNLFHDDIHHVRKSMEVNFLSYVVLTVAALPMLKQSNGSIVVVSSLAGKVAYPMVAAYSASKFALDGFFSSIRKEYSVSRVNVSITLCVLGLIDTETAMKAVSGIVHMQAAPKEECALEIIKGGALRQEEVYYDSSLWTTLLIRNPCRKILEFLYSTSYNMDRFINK
- method.description: In vitro inhibition of 11β-HSD 1, HTRF detection of cortisol generated by human liver microsomes
- Type: biochemical
- experimental.context: 1 μM test compound, 100% indicates no inhibition, zero or below zero indicates complete inhibition (relative to carbenoxolone)
- Description: Briefly, compounds were incubated for 1 hour at 37° C. in Tris buffer (20 mM tris, 5 mM EDTA, pH 6.0) containing NADPH (200 μM) and cortisone (80 nM). Cortisol generated in the reaction is then detected with a competitive immunoassay, involving two HTRF conjugates: cortisol linked to XL665 and anti-cortisol antibody labeled with Europium cryptate. […] The amount of cortisol is determined by reading the time-resolved fluorescence of the wells (Ex 320/75 nm; Em 615/8.5 nm and 665/7.5 nm). […]
Return type: number; implicit unit % CTL.

QUERY: # Inhibitory activity on 11β-HSD 1, % CTL lookup, item O=C(c1ccc2nn[nH]c2c1)N1[C@@H]2CC[C@H]1C[C@@H](c1ccc(F)cc1)C2
RESULT: 25

QUERY: # Inhibitory activity on 11β-HSD 1, % CTL lookup, item O=C(c1ccc(O)cc1)N1[C@@H]2CC[C@H]1C[C@@H](c1ccc(F)cc1)C2
RESULT: −47

QUERY: # Inhibitory activity on 11β-HSD 1, % CTL lookup, item O=C(c1ccco1)N1[C@@H]2CC[C@H]1C[C@@H](c1ccc(F)cc1)C2
RESULT: 75

QUERY: # Inhibitory activity on 11β-HSD 1, % CTL lookup, item O=C(c1ccc2[nH]ncc2c1)N1[C@@H]2CC[C@H]1C[C@@H](c1ccc(F)cc1)C2
RESULT: −41

QUERY: # Inhibitory activity on 11β-HSD 1, % CTL lookup, item Nc1ccc(C(=O)N2[C@@H]3CC[C@H]2C[C@@H](c2ccc(F)cc2)C3)cc1Cl
RESULT: −46

QUERY: # Inhibitory activity on 11β-HSD 1, % CTL lookup, item NC(=O)c1cccc(C(=O)N2[C@@H]3CC[C@H]2C[C@@H](c2ccc(F)cc2)C3)c1
RESULT: 41

QUERY: # Inhibitory activity on 11β-HSD 1, % CTL lookup, item Cc1cc(C(F)(F)F)n2nc(C(=O)N3[C@@H]4CC[C@H]3C[C@@H](c3ccc(F)cc3)C4)cc2n1
RESULT: 93

QUERY: # Inhibitory activity on 11β-HSD 1, % CTL lookup, item O=C1CCCN1c1cccc(C(=O)N2[C@@H]3CC[C@H]2C[C@@H](c2ccc(F)cc2)C3)c1
RESULT: 92

QUERY: # Inhibitory activity on 11β-HSD 1, % CTL lookup, item CCn1ncc(C(=O)N2[C@@H]3CC[C@H]2C[C@@H](c2ccc(C)cc2)C3)c1C
RESULT: 12

====

- subject.of.test: 11β-HSD 1 (Homo sapiens)
- Construct: detecting cortisol generated from cortisterone by human liver microsomes; from tissue; host or cells: human liver microsomes
- method.description: In vitro inhibition of 11β-HSD 1, HTRF detection of cortisol generated by human liver microsomes
- Assay type: biochemical
- experimental.context: 1 μM test compound, 100% indicates no inhibition, zero or below zero indicates complete inhibition (relative to carbenoxolone)
assay.metric: Inhibitory activity on 11β-HSD 1, % CTL (% CTL)
Return type: number; implicit unit % CTL.

QUERY: # Inhibitory activity on 11β-HSD 1, % CTL lookup, item COc1ccc(C(=O)N2[C@@H]3CC[C@H]2C[C@@H](c2ccc(F)cc2)C3)cc1C [Example 170]
RESULT: −34

QUERY: # Inhibitory activity on 11β-HSD 1, % CTL lookup, item CC(=O)c1ccccc1C(=O)N1[C@@H]2CC[C@H]1C[C@@H](c1ccc(F)cc1)C2 [Example 126]
RESULT: 63

QUERY: # Inhibitory activity on 11β-HSD 1, % CTL lookup, item O=C(c1cccc(-c2cnco2)c1)N1[C@@H]2CC[C@H]1C[C@@H](c1ccc(F)cc1)C2 [Example 91]
RESULT: 69

QUERY: # Inhibitory activity on 11β-HSD 1, % CTL lookup, item O=C(c1cc(F)c(O)c(F)c1)N1[C@@H]2CC[C@H]1C[C@@H](c1ccc(F)cc1)C2 [Example 172]
RESULT: 0
